B1: ZNF649 (parent)
chain: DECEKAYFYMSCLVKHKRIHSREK

Variants of: B1
METHOD_SUMMARY: protein stability index of a GFP-peptide fusion (GPS, HEK-293T) (PSI 1-6); higher = more stable;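 note: lentivirally expressed fusions sorted by FACS into six bins by GFP to DsRed ratio, PSI derived from sequencing read proportions per bin multiplied by bin number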
CONDITION_NOTES: c terminus: a fixed tail appended
METRIC: protein stability index

- SEQUENCE_RECORD: "DEKEKAYFYMSCLVKHKRIHSREK [C3K]"
  VALUE_MEASURED: 2.88
- SEQUENCE_RECORD: "DEYEKAYFYMSCLVKHKRIHSREK [C3Y]"
  VALUE_MEASURED: 2.67
- SEQUENCE_RECORD: "DECEKAYFYMSCLVKHKRIHVREK [S21V]"
  VALUE_MEASURED: 2.65
- SEQUENCE_RECORD: "DECEKAYFYMSCLVKHKRIHSRPK [E23P]"
  VALUE_MEASURED: 2.1
- SEQUENCE_RECORD: "DECEKAYFTMSCLVKHKRIHSREK [Y9T]"
  VALUE_MEASURED: 3.94
- SEQUENCE_RECORD: "DECEKAYFYMSCLVKHKRQHSREK [I19Q]"
  VALUE_MEASURED: 3.42
- SEQUENCE_RECORD: "DECEKAYFYMSCLVKKKRIHSREK [H16K]"
  VALUE_MEASURED: 2.65
- SEQUENCE_RECORD: "DECEKAYFYMSCLVKPKRIHSREK [H16P]"
  VALUE_MEASURED: 2.92
- SEQUENCE_RECORD: "DECEKAYFYMHCLVKHKRIHSREK [S11H]"
  VALUE_MEASURED: 2.82
- SEQUENCE_RECORD: "DECEKAYKYMSCLVKHKRIHSREK [F8K]"
  VALUE_MEASURED: 3.6
- SEQUENCE_RECORD: "DECEKAYFYMSCLVKHKIIHSREK [R18I]"
  VALUE_MEASURED: 2.08
- SEQUENCE_RECORD: "DECEKAIFYMSCLVKHKRIHSREK [Y7I]"
  VALUE_MEASURED: 2.23
- SEQUENCE_RECORD: "DECEKAYFYMSCLVKHKRIHSRYK [E23Y]"
  VALUE_MEASURED: 2.17
- SEQUENCE_RECORD: "DECEKAYFYMSQLVKHKRIHSREK [C12Q]"
  VALUE_MEASURED: 3.09
- SEQUENCE_RECORD: "DECEKAYFYMSCLVKHKRIYSREK [H20Y]"
  VALUE_MEASURED: 2.59
- SEQUENCE_RECORD: "DECEKAYFYMSCLVKHKRIHSRRK [E23R]"
  VALUE_MEASURED: 3.04
- SEQUENCE_RECORD: "DECEKAYFYMSCLVKCKRIHSREK [H16C]"
  VALUE_MEASURED: 1.76
- SEQUENCE_RECORD: "DECEKAYFYMSCLVKHKRIHSLEK [R22L]"
  VALUE_MEASURED: 1.43
- SEQUENCE_RECORD: "DECEKAYFYMSCLVKHERIHSREK [K17E]"
  VALUE_MEASURED: 2.54
- SEQUENCE_RECORD: "DECEKAYFYMSCLVKTKRIHSREK [H16T]"
  VALUE_MEASURED: 2.56
- SEQUENCE_RECORD: "DECEKAYFYESCLVKHKRIHSREK [M10E]"
  VALUE_MEASURED: 3.92
- SEQUENCE_RECORD: "DECEKAYFYMSCLKKHKRIHSREK [V14K]"
  VALUE_MEASURED: 3.41

Taken from the supplement of paper PMC10567573.
